system: UACC-62; experiment: NCI tumour cell line growth inhibition, 48 h
Calls of active or inactive are those of the source. No stated cut-off is given here; in the data, active = GI50 up to about 1.1 µM and inactive = higher.
Please reply with one of these outcomes: y for active, n for inactive

Please review the following examples before continuing.
- compound: "CNC(=O)/C(=C/c1ccc(OC)cc1)c1cc(OC)c(OC)c(OC)c1"
  category: "y"
- compound: "COC(=O)c1c/c(=N\\NC(=O)CC(=O)Nc2ccc(C)cc2)c2ccccc2o1"
  category: "n"
- compound: "Cc1cc(NC(=O)NC(=O)c2ccccc2NC(=O)CN)ccc1Oc1ncc(Br)cn1"
  category: "y"

Kindly consider the entry below.
Each compound tested received a call. Report the one for Cc1ccc(C)c(NC(=O)c2cc(-c3ccc([N+](=O)[O-])cc3)nc(N)n2)c1 .
n
